# Measurement Notes: GI S9 stability, cyno, Example Y
# Assay type: in vitro ADME
# Measurement Context: cynomolgus monkey, pooled intestinal S9 fractions; cyno intestinal S9, 1.0 mg/mL protein, 2 μM compound, pH 7.4; read-out: GIS9 Cyno T½ (per Ex. Y)
Listed here are compounds together with their documented half-life at 2 μM.
Measure Name: half-life at 2 μM

>>> df
                  compound_structure_string       measure_name  observed
0  CC(C)(C)COC(=O)OC[C@@]1(C#N)O[C@@H](c2ccc3c(N)ncnn23)[C@H](O)[C@@H]1O  half-life at 2 μM     4 min
1  CC(C)(C)OC(=O)OC[C@@]1(C#N)O[C@@H](c2ccc3c(N)ncnn23)[C@H](O)[C@@H]1O  half-life at 2 μM    72 min
2  N#C[C@]1(COC(=O)OC2CCOCC2)O[C@@H](c2ccc3c(N)ncnn23)[C@H](O)[C@@H]1O  half-life at 2 μM   274 min
3  CCCOC(=O)OC[C@@]1(C#N)O[C@@H](c2ccc3c(N)ncnn23)[C@H](O)[C@@H]1O  half-life at 2 μM    19 min
4  COC(=O)OC[C@@]1(C#N)O[C@@H](c2ccc3c(N)ncnn23)[C@H](O)[C@@H]1O  half-life at 2 μM    38 min
5  N#C[C@]1(COC(=O)OC2CCCC2)O[C@@H](c2ccc3c(N)ncnn23)[C@H](O)[C@@H]1O  half-life at 2 μM    11 min
6  CC(C)COC(=O)OC[C@@]1(C#N)O[C@@H](c2ccc3c(N)ncnn23)[C@@H]2OC(=O)O[C@@H]21  half-life at 2 μM     2 min

---

# Measurement Notes: GI S9 stability, rat, Example Y
# Assay type: in vitro ADME
# Measurement Context: pooled intestinal S9 fractions; rat intestinal S9, 1.0 mg/mL protein, 2 μM compound, pH 7.4; read-out: GIS9 Rat T½ (per Ex. Y)
Listed here are compounds together with their documented half-life at 2 μM.
Measure Name: half-life at 2 μM

>>> print(df.to_string())
                   compound_structure_string  observed
 0  CC(C)(C)COC(=O)OC[C@@]1(C#N)O[C@@H](c2ccc3c(N)ncnn23)[C@H](O)[C@@H]1O     6 min
 1  N#C[C@]1(COC(=O)OC2CCOCC2)O[C@@H](c2ccc3c(N)ncnn23)[C@H](O)[C@@H]1O    58 min
 2  CCCOCCOC(=O)OC[C@@]1(C#N)O[C@@H](c2ccc3c(N)ncnn23)[C@H](O)[C@@H]1O    11 min
 3  CC(C)COC(=O)OC[C@@]1(C#N)O[C@@H](c2ccc3c(N)ncnn23)[C@@H]2OC(=O)O[C@@H]21     2 min
 4  CC[C@H](C)OC(=O)OC[C@@]1(C#N)O[C@@H](c2ccc3c(N)ncnn23)[C@H](O)[C@@H]1O    10 min
 5  CCCOC(=O)OC[C@@]1(C#N)O[C@@H](c2ccc3c(N)ncnn23)[C@H](O)[C@@H]1O     8 min
 6  CC(C)CCOC(=O)OC[C@@]1(C#N)O[C@@H](c2ccc3c(N)ncnn23)[C@H](O)[C@@H]1O     3 min
 7  N#C[C@]1(COC(=O)OC2CCCC2)O[C@@H](c2ccc3c(N)ncnn23)[C@H](O)[C@@H]1O     6 min
 8  N#C[C@]1(COC(=O)O[C@@H]2C[C@@H]3C[C@@H]3C2)O[C@@H](c2ccc3c(N)ncnn23)[C@H](O)[C@@H]1O     7 min
 9  CCOC(=O)OC[C@@]1(C#N)O[C@@H](c2ccc3c(N)ncnn23)[C@H](O)[C@@H]1O    14 min
10  N#C[C@]1(COC(=O)OCCc2ccccc2)O[C@@H](c2ccc3c(N)ncnn23)[C@H](O)[C@@H]1O     4 min
11  CC(C)OC(=O)OC[C@@]1(C#N)O[C@@H](c2ccc3c(N)ncnn23)[C@H](O)[C@@H]1O    14 min
12  CCC(CC)OC(=O)OC[C@@]1(C#N)O[C@@H](c2ccc3c(N)ncnn23)[C@H](O)[C@@H]1O    16 min
13  CC[C@@H](C)OC(=O)OC[C@@]1(C#N)O[C@@H](c2ccc3c(N)ncnn23)[C@H](O)[C@@H]1O    13 min
14  CC(C)COC(=O)OC[C@@]1(C#N)O[C@@H](c2ccc3c(N)ncnn23)[C@H](O)[C@@H]1O     7 min
